- targetOrTestSystem: human CaMKIIδ (Homo sapiens, UniProt Q13557)
- Construct: Full-length, glutathione-S-transferase(GST)-tagged, human CaMKIIδ was purchased from Carna Biosciences; purchased Carna Biosciences (CaMKIIδ); Wako Pure Chemical Industries (calmodulin) 02-111
- methodDescription: Evaluation of in vitro CaMKII inhibitory activity (binding assay, TR-FRET)
- statedConditions: human CaMKIIδ, TR-FRET binding assay; class symbols A/B/C; read-out: Act (CaMKII inhibitory activity, binding assay)
Reported values of IC50 for individual entries

COc1ccnc(-c2cnc3ccc(-c4ccc(F)c(N(C)[C@@H](C)Cn5cnnn5)c4)nn23)c1C#N; > 100 nM
CC(C)Oc1cccc(-c2cnc3ccc(-c4ccc(F)c(O[C@@H](C)Cn5cnnn5)c4)nn23)c1C#N; < 10 nM
COC(=O)c1cccc(-n2cnc3ccc(-c4ccc(F)c(O[C@@H](C)Cn5cnnn5)c4)nc32)c1; < 10 nM
C[C@@H](Cn1cnnn1)Oc1cccc(-c2ccn3ncc(-c4cccc(C(=O)Nc5cn[nH]c5)c4)c3n2)c1; < 10 nM
COC(=O)c1cccc(-c2cnn3ccc(-c4ccc(F)c(O[C@@H](C)Cn5cnnn5)c4)nc23)c1Cl; 10 to 100 nM
C[C@@H](Cn1cnnn1)Oc1cc(-c2ccn3ncc(-c4ccc(Cl)cc4)c3n2)ccc1F; 10 to 100 nM

Request: Which measured IC50 value corresponds to "C[C@@H](Cn1cnnn1)Oc1cc(-c2ccc3ncc(-c4ccccc4C#N)n3n2)ccc1F" ?
Result: < 10 nM

Ref: patent US12528816B2
